Consider the following compounds and their measured IC50 readings.
Target: Human immunodeficiency virus type 1 protease (Human immunodeficiency virus 1, UniProt Q72874)
Assay: Binding activity against HIV-1 Protease

compound	unit	comparison.sign	IC50
CC(C)(C)OC(=O)[C@@H]1CCCN1C[C@@H](O)[C@H](Cc1ccccc1)NC(=O)[C@H](CC(N)=O)NC(=O)OCc1ccccc1	nM	=	140
CC[C@H](C)[C@H](NC(=O)[C@@H]1CCCN1C[C@H](O)[C@H](Cc1ccccc1)NC(=O)[C@H](CC(N)=O)NC(=O)OCc1ccccc1)C(=O)N[C@H](C(=O)OC)C(C)C	nM	=	13
CC(C)(C)OC(=O)[C@@H]1CCCN1C[C@H](O)[C@H](Cc1ccccc1)NC(=O)[C@H](CC(N)=O)NC(=O)OCc1ccccc1	nM	=	300
CC(C)(C)NC(=O)C1CC2CCCCC2CN1C[C@@H](O)[C@H](Cc1ccccc1)NC(=O)[C@H](CC(N)=O)NC(=O)OCc1ccccc1 (stereo partly specified)	nM	<	2.7
CC[C@H](C)[C@H](NC(=O)[C@@H]1CCCN1C[C@@H](O)[C@H](Cc1ccccc1)NC(=O)[C@H](CC(N)=O)NC(=O)OCc1ccccc1)C(=O)N[C@H](C(=O)OC)C(C)C	nM	>	100
CC(C)(C)NC(=O)C1CC2CCCCC2CN1C[C@H](O)[C@H](Cc1ccccc1)NC(=O)[C@H](CC(N)=O)NC(=O)OCc1ccccc1 (stereo partly specified)	nM	>	100

====

Target: Human immunodeficiency virus type 1 protease (Human immunodeficiency virus 1)
Experiment: Binding activity against HIV-1 Protease
pIC50: −log10 of the molar value. Numbered stars: 1 amine (or outer) side, 2 acyl side, 3 side chain; on linkers, the order of the positions; unused ones are H or OH. Square brackets hold non-standard residues; d marks the D form. Peptide text beside a SMILES is read from it. X1 = O=C([C@@H]1CCCN1CC(O)[C@H](Cc1ccccc1)N[*:1])[*:2]
reported.metric: pIC50

compound	reported.metric	result
CC[C@H](C)[C@H](NC(=O)[C@@H]1CCCN1CC(O)[C@H](Cc1ccccc1)NC(=O)[C@H](CC(N)=O)NC(=O)[C@H](CC(C)C)NC(=O)[C@H](CO)NC(C)=O)C(=O)OC (stereo partly drawn) (Ac-SLN[X1]I-OMe)	pIC50	6.38
CC[C@H](C)[C@H](NC(=O)C1CC2CCCCC2CN1C[C@H](O)[C@H](Cc1ccccc1)NC(=O)[C@H](CC(N)=O)NC(=O)OCc1ccccc1)C(=O)N[C@H](C(=O)OC)C(C)C (stereo partly drawn)	pIC50	< 7.00
CC[C@H](C)[C@H](NC(=O)C1CC2CCCCC2CN1C[C@@H](O)[C@H](Cc1ccccc1)NC(=O)[C@H](CC(N)=O)NC(=O)OCc1ccccc1)C(=O)N[C@H](C(=O)OC)C(C)C (stereo partly drawn)	pIC50	< 7.00

====

IC50: recorded values
Target: Human immunodeficiency virus type 1 protease (Human immunodeficiency virus 1)
Experiment: Binding activity against HIV-1 Protease

compound	IC50
CC[C@H](C)[C@H](NC(=O)C1CC2CCCCC2CN1C[C@@H](O)[C@H](Cc1ccccc1)NC(=O)[C@H](CC(N)=O)NC(=O)OCc1ccccc1)C(=O)N[C@H](C(=O)OC)C(C)C (stereo not given in full)	> 100 nM
CC(C)(C)NC(=O)C1CC2CCCCC2CN1C[C@H](O)[C@H](Cc1ccccc1)NC(=O)[C@H](CC(N)=O)NC(=O)OCc1ccccc1 (stereo not given in full)	> 100 nM
CC[C@H](C)[C@H](NC(=O)[C@@H]1CCCN1C[C@@H](O)[C@H](Cc1ccccc1)NC(=O)[C@H](CC(N)=O)NC(=O)OCc1ccccc1)C(=O)N[C@H](C(=O)OC)C(C)C	> 100 nM
CC(C)(C)NC(=O)C1CC2CCCCC2CN1C[C@@H](O)[C@H](Cc1ccccc1)NC(=O)[C@H](CC(N)=O)NC(=O)OCc1ccccc1 (stereo not given in full)	< 2.7 nM
CC[C@H](C)[C@H](NC(=O)C1CC2CCCCC2CN1C[C@H](O)[C@H](Cc1ccccc1)NC(=O)[C@H](CC(N)=O)NC(=O)OCc1ccccc1)C(=O)N[C@H](C(=O)OC)C(C)C (stereo not given in full)	> 100 nM
